biological target: Cellular tumor antigen p53 (Homo sapiens) (UniProt P04637); assay: TOX21_p53_BLA_p4_ratio: Tox21 HCT-116 p53 Agonism Beta-lactamase Assay, Ratio, Phase 4 (AID 2283601)
Sequence (P04637 whole entry, looked up): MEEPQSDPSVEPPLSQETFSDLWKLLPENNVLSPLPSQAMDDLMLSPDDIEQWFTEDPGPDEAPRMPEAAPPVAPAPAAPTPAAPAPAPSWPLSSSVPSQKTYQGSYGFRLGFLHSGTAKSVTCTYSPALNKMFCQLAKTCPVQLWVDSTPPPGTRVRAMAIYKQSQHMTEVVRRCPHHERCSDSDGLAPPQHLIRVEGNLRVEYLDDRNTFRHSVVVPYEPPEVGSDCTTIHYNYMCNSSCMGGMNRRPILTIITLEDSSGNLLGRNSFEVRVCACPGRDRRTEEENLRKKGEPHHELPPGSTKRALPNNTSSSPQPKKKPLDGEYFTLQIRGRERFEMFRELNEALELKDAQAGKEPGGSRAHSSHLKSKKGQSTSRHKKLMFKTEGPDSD
Inconclusive results are not listed. The source made the active and inactive calls. Rule for the calls: active = hit-call score of the fitted dose curve at least 0.9, where 1 is the maximum; inconclusive = response in the unintended direction; inactive = score below 0.9. Where a SMILES comes first, the peptide text is derived from it. [ ]: non-standard residue; d: D form. Orn = NCCC[C@H](N)C(=O)O
Recorded endpoint: AC50

[[record]]
compound = "CCCCCCCCCCCC[n+]1ccc2ccccc2c1"
result = "21.8 µM (active)"

[[record]]
compound = "Cc1cc(O)c(C(C)(C)C)cc1Sc1cc(C(C)(C)C)c(O)cc1C"
result = "31.5 µM (active)"

[[record]]
compound = "Clc1cc(Cl)c(Cl)nc1Cl"
result = "inactive"

[[record]]
compound = "CC(=O)OCCN(CCOC(C)=O)c1ccc(N=Nc2ccc([N+](=O)[O-])cc2C#N)cc1"
result = "inactive"

[[record]]
compound = "COc1ccc(S(=O)(=O)Nc2nnc(CC(C)C)s2)cc1"
result = "inactive"

[[record]]
compound = "O=C(CCCCCCCCC#CI)Oc1ccccc1"
result = "inactive"

[[record]]
compound = "C[C@H](CS)C(=O)N1CCC[C@H]1C(=O)O"
result = "inactive"

[[record]]
compound = "CC(=O)N(O)CCCCCNC(=O)CCC(=O)N(O)CCCCCNC(=O)CCC(=O)N(O)CCCCCN"
result = "inactive"

[[record]]
compound = "N=c1nc(N2CCCCC2)cc(N)n1O"
result = "inactive"

[[record]]
compound = "NC(=O)NC(=O)Cc1ccccc1"
result = "inactive"

[[record]]
compound = "CC[C@@H](C(=O)O)[C@@H]1O[C@@H]([C@@H](C)[C@H](O)[C@H](C)C(=O)[C@H](CC)[C@H]2O[C@]3(C=C[C@@H](O)[C@]4(CC[C@@](C)([C@H]5CC[C@](O)(CC)[C@H](C)O5)O4)O3)[C@H](C)C[C@@H]2C)[C@@H](C)C[C@@H]1C"
result = "5.21 µM (active)"

[[record]]
compound = "COc1ccc(CNCC(O)COc2ccc3[nH]c(=O)ccc3c2)cc1OC (stereo not drawn)"
result = "inactive"

[[record]]
compound = "CC(C)COC(=O)c1ccc(N)cc1"
result = "inactive"

[[record]]
compound = "O=C(O)C[C@H](NC(=O)OCc1ccccc1)C(=O)O"
result = "inactive"

[[record]]
compound = "CCC(C(=O)OCCOCCN(CC)CC)c1ccccc1 (stereo not drawn)"
result = "inactive"

[[record]]
compound = "NCCS(=O)(=O)O"
result = "inactive"

[[record]]
compound = "CC(C)C[C@@H]1NC(=O)[C@H](CCCN)NC(=O)[C@H](C(C)C)NC(=O)[C@@H]2CCCN2C(=O)[C@@H](Cc2ccccc2)NC(=O)[C@H](CC(C)C)NC(=O)[C@H](CCCN)NC(=O)[C@H](C(C)C)NC(=O)[C@@H]2CCCN2C(=O)[C@@H](Cc2ccccc2)NC1=O (cyclo(V[Orn]L[dF]PV[Orn]L[dF]P))"
result = "2.35 µM (active)"

[[record]]
compound = "Cc1ccc2c(c1[N+](=O)[O-])C(=O)c1ccccc1C2=O"
result = "25.7 µM (active)"

